Read-out: Fatty Acid-Binding Protein 1 (FABP1), FABP1 (gene 2168)
Assay: LTEA_HepaRG_FABP1: Life Technologies and Expression Analysis (LTEA) Assay for Fatty Acid-Binding Protein 1 (FABP1) using HepaRG (AID 2283494)
Conditions: mRNA level, 48 h; actives raise or lower the signal
Method: LTEA_HepaRG is a cell based, multiplexed-readout assay that uses HepaRG, a human liver cell line, with measurements taken at 48 hours after chemical dosing on a 96-well plate.LTEA_HepaRG_FABP1 is one of 102 assay component(s) measured in the LTEA HepaRG cell culture assay. It is a marker of Steatosis.Data from the assay component LTEA_HepaRG_FABP1 was analyzed into 1 endpoint. […]
Active and inactive are the calls of the source. The calls were made as follows: active = hit-call score of the fitted dose curve at least 0.9, where 1 is the maximum; inactive = score below 0.9.
Output constraint: value belongs to active, inactive

Examples with answers:
• NC(=O)c1nc(-c2cccc(-c3cc(F)ccc3OCC(F)(F)C(F)(F)F)c2)n[nH]1 = active
• CO[C@H]1/C=C/O[C@@]2(C)Oc3c(C)c(O)c4c(O)c(c(/C=N/N5CCN(C)CC5)c(O)c4c3C2=O)NC(=O)/C(C)=C\C=C\[C@H](C)[C@H](O)[C@@H](C)[C@@H](O)[C@@H](C)[C@H](OC(C)=O)[C@@H]1C = active
• COc1cccc([C@H](O)C2CCN(CCc3ccc(F)cc3)CC2)c1OC = inactive
• NCc1cccc(C2CCN(C(=O)c3ccc(C#Cc4ccccc4F)o3)CC2)c1 = inactive
• CN(C[C@@H](CC[N+]12CCC(C3CCCCC3)(CC1)CC2)c1ccc(Cl)c(Cl)c1)C(=O)c1cc(C(F)(F)F)cc(C(F)(F)F)c1 = active
• Cc1c2ccccc2c(C)c2c1ccc1ccccc12 = active

Write down the call the test reported for this compound. Item: "CC(C)(O)c1ccc(CNC(=O)c2cccnc2Oc2ccc3nonc3c2)cc1"
inactive

Hello, I am checking results. What call was entered for "Cc1cc2c(cc1C(F)(F)F)N(C(=O)Nc1ccc(Oc3cccnc3C)nc1)CC2" ?
active
